Target: cellular GLS activity in PC3 cells (Homo sapiens (Human), UniProt O94925)
Test: GLS Cell Potency Assay (PC3 coupled assay measuring cellular glutamate depletion)
Settings: PC3 cells, 6 h incubation, glutamate depletion; read-out: Assay b) GLS cell MOA Mean IC50
Exam item: assign criterion met to entries whose IC50 is below 3 nM and criterion not met to entries at or above 3 nM. Note that a value of exactly 3 nM receives criterion not met.

compound | label
COC(C(=O)Nc1nnc(N[C@@H]2CCN(c3ccc(C)nn3)C2)s1)c1cccc(N2CC(F)C2)c1 (single isomer, unassigned) [Example 35] | criterion met
COC(C(=O)Nc1nnc(N[C@@H]2CCN(c3cccnn3)C2)s1)c1ccc(F)c(N2CC(F)(F)C2)c1 (stereo partly shown) [Example 37] | criterion met
COC(C(=O)Nc1nnc(N[C@@H]2CCN(c3nccnn3)C2)s1)c1cccc(C2COC2)c1 (single isomer, unassigned) [Example 24] | criterion not met
COC(C(=O)Nc1nnc(N[C@@H]2CCN(c3nccnn3)C2)s1)c1cccc(C2COC2)c1 (single isomer, unassigned) [Example 25] | criterion not met
CO[C@H](C(=O)Nc1nnc(N[C@@H]2CCN(c3cccnn3)C2)s1)c1cccc(N2CC(F)C2)c1 (single isomer, unassigned) [Example 1(a)] | criterion met
COC(C(=O)Nc1nnc(N[C@@H]2CCN(c3ccc(F)nn3)C2)s1)c1cccc(N2CC(F)C2)c1 (single isomer, unassigned) [Example 28] | criterion not met
CCOC(C(=O)Nc1nnc(N[C@@H]2CCN(c3cccnn3)C2)s1)c1cccc(N2CC(OC)C2)c1 (stereo partly shown) [Example 34] | criterion not met

###

Reported values of pIC50 for individual entries
Target: GLS1 (Homo sapiens (Human), UniProt O94925)
Sequence (O94925 63-669): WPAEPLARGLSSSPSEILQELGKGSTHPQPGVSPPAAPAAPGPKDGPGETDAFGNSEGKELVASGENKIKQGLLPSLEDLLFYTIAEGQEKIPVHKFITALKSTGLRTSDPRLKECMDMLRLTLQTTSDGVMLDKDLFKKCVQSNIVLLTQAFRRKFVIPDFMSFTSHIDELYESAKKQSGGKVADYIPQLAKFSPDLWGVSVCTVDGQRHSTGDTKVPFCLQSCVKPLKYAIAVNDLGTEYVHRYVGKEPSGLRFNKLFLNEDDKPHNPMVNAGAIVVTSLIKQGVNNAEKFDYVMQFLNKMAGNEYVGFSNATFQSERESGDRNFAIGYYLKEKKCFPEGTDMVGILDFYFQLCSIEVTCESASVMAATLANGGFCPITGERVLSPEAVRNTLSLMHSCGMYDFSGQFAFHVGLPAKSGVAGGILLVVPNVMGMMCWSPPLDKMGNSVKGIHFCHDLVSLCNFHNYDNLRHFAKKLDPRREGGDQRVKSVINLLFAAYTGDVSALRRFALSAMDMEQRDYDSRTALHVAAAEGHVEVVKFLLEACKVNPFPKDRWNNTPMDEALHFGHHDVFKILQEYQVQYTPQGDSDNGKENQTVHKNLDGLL
Test: GLS Enzyme Potency Assay (Glutamate Oxidase/AmplexRed coupled assay)
Format: biochemical
Settings: 6His tagged GLS protein (amino acids 63-669), recombinant; read-out: Assay a) enz IC50
pIC50: −log10 of the molar value.

compound | assaySystem | pIC50
CO[C@H](C(=O)Nc1nnc(N[C@@H]2CCN(c3nccnn3)C2)s1)c1cccc(N2CC(F)C2)c1 (single isomer, unassigned) [Example 15(a)] | GLS1 (Homo sapiens (Human), UniProt O94925) | 7.11
COC(C(=O)Nc1nnc(N[C@@H]2CCN(c3cccnn3)C2)s1)c1ccc(F)c(N2CC(F)(F)C2)c1 (stereo partly drawn) [Example 37] | GLS1 (Homo sapiens (Human), UniProt O94925) | 6.83
COc1cc(OC)cc([C@H](OC)C(=O)Nc2nnc(N[C@@H]3CCN(c4cccnn4)C3)s2)c1 [Example 21(a)] | GLS1 (Homo sapiens (Human), UniProt O94925) | 7.70
COC(C(=O)Nc1nnc(N[C@@H]2CCN(c3nccnn3)C2)s1)c1cccc(C2COC2)c1 (single isomer, unassigned) [Example 25] | GLS1 (Homo sapiens (Human), UniProt O94925) | 5.74
CCOC(C(=O)Nc1nnc(N[C@@H]2CCN(c3cccnn3)C2)s1)c1cccc(N2CC(F)C2)c1 (single isomer, unassigned) [Example 32] | GLS1 (Homo sapiens (Human), UniProt O94925) | 6.73
COC(C(=O)Nc1nnc(N[C@@H]2CCN(c3ccc(F)nn3)C2)s1)c1cccc(N2CC(F)C2)c1 (single isomer, unassigned) [Example 28] | GLS1 (Homo sapiens (Human), UniProt O94925) | 6.71
